biological target: hPolεCD (E. coli) (Homo sapiens, UniProt Q07864 28-1194); test: BLI
Sequence (Q07864 28-1194): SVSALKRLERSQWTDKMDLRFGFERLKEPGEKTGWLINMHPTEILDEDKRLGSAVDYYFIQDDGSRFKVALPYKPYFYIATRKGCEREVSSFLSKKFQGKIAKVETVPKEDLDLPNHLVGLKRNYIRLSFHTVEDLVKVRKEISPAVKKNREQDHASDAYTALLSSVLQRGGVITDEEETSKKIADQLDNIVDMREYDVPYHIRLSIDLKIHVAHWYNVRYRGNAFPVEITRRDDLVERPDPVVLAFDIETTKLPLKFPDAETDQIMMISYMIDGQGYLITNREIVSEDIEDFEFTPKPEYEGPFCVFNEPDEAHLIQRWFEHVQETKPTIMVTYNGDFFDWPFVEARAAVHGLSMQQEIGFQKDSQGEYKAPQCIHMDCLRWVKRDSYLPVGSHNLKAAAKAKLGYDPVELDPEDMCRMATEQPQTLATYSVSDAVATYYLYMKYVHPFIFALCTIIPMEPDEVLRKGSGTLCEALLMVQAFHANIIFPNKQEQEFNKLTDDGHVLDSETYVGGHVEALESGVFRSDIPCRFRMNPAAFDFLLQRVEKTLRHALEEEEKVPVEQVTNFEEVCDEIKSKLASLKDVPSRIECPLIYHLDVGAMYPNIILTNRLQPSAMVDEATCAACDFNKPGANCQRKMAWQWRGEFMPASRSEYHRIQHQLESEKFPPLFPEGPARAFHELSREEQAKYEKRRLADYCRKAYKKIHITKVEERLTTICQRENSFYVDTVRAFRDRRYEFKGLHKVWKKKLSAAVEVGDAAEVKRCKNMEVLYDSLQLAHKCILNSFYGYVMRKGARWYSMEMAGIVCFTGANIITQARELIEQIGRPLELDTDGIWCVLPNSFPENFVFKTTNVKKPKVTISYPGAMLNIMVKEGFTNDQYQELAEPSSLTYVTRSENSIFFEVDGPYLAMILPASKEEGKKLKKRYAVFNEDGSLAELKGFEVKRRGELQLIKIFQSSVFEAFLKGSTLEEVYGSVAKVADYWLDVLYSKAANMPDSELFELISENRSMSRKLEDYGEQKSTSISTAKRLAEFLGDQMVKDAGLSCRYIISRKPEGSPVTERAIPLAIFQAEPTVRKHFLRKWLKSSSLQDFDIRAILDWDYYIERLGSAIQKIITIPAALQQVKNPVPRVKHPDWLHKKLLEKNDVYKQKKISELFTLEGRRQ
assay_readout: Kd (nM)
Give bare numbers, in nM.

Query: Give its Kd value. Item: Octet template:primer 23/11 (dsDNA, 3' dideoxycytidine on primer) DNA 1: AATACATAAGCGCTCCAGGCAAT DNA 2: GCCTGGAGCGC
Response: 167

Source: paper doi:10.1101/2022.05.05.490830
